# Tested on: Setaria faberi (SETFA)
# PROCEDURE TEXT: Post-emergence herbicide glasshouse test
# Format: in vivo
# EXPERIMENTAL PARAMETERS: 250 g/ha, evaluated after 13 days, five-point scale
RESULT TYPE: percentage damage caused to the plant, SETFA

molecule=FC(F)(F)c1nc(CC=NOCC2CC2)c2c(Oc3ncc(Cl)cn3)cccc2n1 result="1 (1=0-20%)"
molecule="CC(Br)c1nc(C(F)(F)F)nc2cccc(Oc3ncc(Cl)cn3)c12 (stereo not drawn)" result="1 (1=0-20%)"
molecule="FC(F)(F)CCC(Br)c1nc(C(F)(F)F)nc2cccc(Oc3ncc(Cl)cn3)c12 (stereo not drawn)" result="4 (4=61-80%)"
molecule=FC(F)(F)c1nc(CCCC2CC2)c2c(Oc3ncc(Cl)cn3)cccc2n1 result="5 (5=81-100%)"
molecule=FC(F)(F)c1ncc(-c2nc(C(F)(F)F)nc3cccc(Oc4ncc(Cl)cn4)c23)cn1 result="1 (1=0-20%)"
molecule="C=CCON=CCCc1nc(C(F)(F)F)nc2cccc(Oc3ncc(Cl)cn3)c12 [Compound 1.011]" result="4 (4=61-80%)"
molecule=O=C(c1ccncc1)c1nc(C(F)(F)F)nc2cccc(Oc3ncc(Cl)cn3)c12 result="1 (1=0-20%)"
molecule=FC(F)(F)c1nc(-c2ncccn2)c2c(Oc3ncc(Cl)cn3)cccc2n1 result="1 (1=0-20%)"
molecule=FC(F)(F)c1nc(CCC2CC2)c2c(Oc3ncc(Cl)cn3)cccc2n1 result="5 (5=81-100%)"
molecule=FC(F)(F)c1nc(CCC2CC2)c2c(Oc3ncc(Cl)cn3)ccc(Br)c2n1 result="2 (2=21-40%)"
molecule=FC(F)(F)c1nc(CCC2CCCCC2)c2c(Oc3ncc(Cl)cn3)cccc2n1 result="2 (2=21-40%)"
molecule="FC(F)(F)c1nc(CCC2CCOC2)c2c(Oc3ncc(Cl)cn3)cccc2n1 (stereo not drawn)" result="5 (5=81-100%)"
molecule="CC(=NOCC1CC1)c1nc(C(F)(F)F)nc2cccc(Oc3ncc(Cl)cn3)c12 [Compound 1.065]" result="1 (1=0-20%)"
molecule=Cn1nc(-c2nc(C(F)(F)F)nc3cccc(Oc4ncc(Cl)cn4)c23)cc1C(F)F result="1 (1=0-20%)"
molecule=FC(F)(F)c1nc(CBr)c2c(Oc3ncc(Cl)cn3)cccc2n1 result="4 (4=61-80%)"
molecule="CC(=NOCC1CC1)c1nc(C(F)(F)F)nc2cccc(Oc3ncc(Cl)cn3)c12 [Compound 1.003]" result="1 (1=0-20%)"
molecule=Cc1ccc(Oc2ncc(Cl)cn2)c2c(CCC3CC3)nc(C(F)(F)F)nc12 result="1 (1=0-20%)"
molecule=CC(=NOCC(F)(F)F)c1nc(C(F)(F)F)nc2cccc(Oc3ncc(Cl)cn3)c12 result="1 (1=0-20%)"
molecule=N#CCCc1nc(C(F)(F)F)nc2cccc(Oc3ncc(Cl)cn3)c12 result="2 (2=21-40%)"
molecule=C=CCCc1nc(C(F)(F)F)nc2cccc(Oc3ncc(Cl)cn3)c12 result="4 (4=61-80%)"
molecule="FC(F)(F)c1nc(CCC=NOCC2CC2)c2c(Oc3ncc(Cl)cn3)cccc2n1 [Compound 1.068]" result="5 (5=81-100%)"
molecule=O=C(c1cccnc1)c1nc(C(F)(F)F)nc2cccc(Oc3ncc(Cl)cn3)c12 result="2 (2=21-40%)"
molecule=Cc1cnc(Oc2cccc3nc(C(F)(F)F)nc(CCC4CC4)c23)nc1 result="5 (5=81-100%)"
molecule=CC(=O)c1nc(C(F)(F)F)nc2cccc(Oc3ncc(Cl)cn3)c12 result="2 (2=21-40%)"
molecule="FC(F)(F)c1nc(CCC=NOCC2CC2)c2c(Oc3ncc(Cl)cn3)cccc2n1 [Compound 1.005]" result="4 (4=61-80%)"
molecule=FC(F)(F)c1nc(CCC2COC2)c2c(Oc3ncc(Cl)cn3)cccc2n1 result="5 (5=81-100%)"
molecule=FC(F)c1cc(-c2nc(C(F)(F)F)nc3cccc(Oc4ncc(Cl)cn4)c23)on1 result="2 (2=21-40%)"
molecule=FC(F)(F)c1nc(CCC2CCOCC2)c2c(Oc3ncc(Cl)cn3)cccc2n1 result="5 (5=81-100%)"
molecule="OCC(O)CCc1nc(C(F)(F)F)nc2cccc(Oc3ncc(Cl)cn3)c12 (stereo not drawn)" result="1 (1=0-20%)"
molecule=Cc1ncc(-c2nc(C(F)(F)F)nc3cccc(Oc4ncc(Cl)cn4)c23)cn1 result="1 (1=0-20%)"
